// values below are reported IC50
# target_of_assay: c-Met (cytoplasmic domain) (Homo sapiens, UniProt P08581)
# Construct: 10 ng/mL c-Met (cytoplasmic domain, Invitrogen Corporation #PV3143); purchased Invitrogen Corporation PV3143
# Sequence (P08581 956-1390 limits assumed): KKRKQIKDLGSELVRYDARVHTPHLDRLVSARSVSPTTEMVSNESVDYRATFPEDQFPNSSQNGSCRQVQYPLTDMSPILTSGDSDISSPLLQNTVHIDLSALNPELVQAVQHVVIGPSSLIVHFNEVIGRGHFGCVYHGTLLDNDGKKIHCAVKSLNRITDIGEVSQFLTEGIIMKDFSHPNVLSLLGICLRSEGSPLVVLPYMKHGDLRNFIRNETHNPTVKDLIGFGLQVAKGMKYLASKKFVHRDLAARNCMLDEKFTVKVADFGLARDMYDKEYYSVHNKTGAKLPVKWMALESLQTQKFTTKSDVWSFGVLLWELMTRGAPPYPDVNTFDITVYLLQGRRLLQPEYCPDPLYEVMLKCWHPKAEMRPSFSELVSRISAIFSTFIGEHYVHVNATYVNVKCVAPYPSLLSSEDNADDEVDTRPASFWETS
# assay_details: c-Met Kinase Assay (same methods as for ALK, with modifications)
# Type: biochemical
# condition_set: c-Met kinase inhibition, 1 μM ATP (Km level); read-out: cMet Activity
attribute_measured: IC50

CC1(C)CCC(=O)Nc2ccc(Nc3ncc(Cl)c(Nc4ccccc4-n4cccn4)n3)cc21 [Example 398]
> 10 µM
CNC(=O)c1cccc(OC)c1Nc1nc(Nc2ccc3c(c2)CCN(CCOC)CC3)ncc1Cl [Example 315]
0.1 to 1 µM
CCN1CCc2ccc(Nc3ncc(Cl)c(Nc4ccc(N5CCOCC5)cc4)n3)cc2CC1 [Example 443]
1 to 10 µM
CNC(=O)c1ccccc1Nc1nc(Nc2ccc3c(c2)C2CN(S(C)(=O)=O)CC3O2)ncc1Cl (stereo not shown) [Example 64]
< 0.1 µM
CNC(=O)c1ccccc1Nc1nc(Nc2ccc3c(c2)C2CC3CN(S(C)(=O)=O)C2)ncc1Cl (stereo not shown) [Example 164]
< 0.1 µM
CCN1CCc2ccc(Nc3ncc(C(F)(F)F)c(Nc4ccccc4C(=O)NC)n3)cc2CC1 [Example 195]
< 0.1 µM
CNC(=O)c1ccccc1Nc1nc(Nc2ccc3c(c2)C(=O)NCCN3C)ncc1Cl [Example 428]
< 0.1 µM
